test system: CWR22R; assay: Antiproliferative activity against AR positive human 22Rv1 cells assessed inhibition of cell growth measured after 4 days by CellTiter-Glo Luminescent cell viability assay; format: functional, cell-based; conditions: 22Rv1, 96 h
pIC50: −log10 of the molar value.
Measurement name: pIC50

{"Molecule": "CC(=O)N1CCc2c(c(N3CCCc4cc(-c5cnn(C)c5)c(C(F)F)cc43)nn2[C@H]2CC[C@H](CN3CCN(c4ccc5c(c4)C(=O)N(C4CCC(=O)NC4=O)C5=O)CC3)CC2)C1 (stereo not given in full)", "Reading qualifier": "=", "Test value": 8.92}
{"Molecule": "CC(=O)N1CCc2c(c(N3CCCc4cc(-c5cnn(C)c5)c(C(F)F)cc43)nn2C2CCOCC2)C1", "Reading qualifier": "<", "Test value": 6.00}
{"Molecule": "CNC(=O)c1ccc(N2C(=S)N(c3ccc(C#N)c(C(F)(F)F)c3)C(=O)C2(C)C)cc1F [ENZALUTAMIDE]", "Reading qualifier": "<", "Test value": 6.00}
{"Molecule": "N#Cc1ccc(O[C@H]2CC[C@H](NC(=O)c3ccc(N4CCC(CN5CCN(c6cc7c(cc6F)C(=O)N(C6CCC(=O)NC6=O)C7=O)CC5)CC4)nn3)CC2)cc1Cl (stereo not given in full) [BAVDEGALUTAMIDE]", "Reading qualifier": "=", "Test value": 6.50}
{"Molecule": "CO[C@H]1CC[C@H](n2c([C@@H]3CCCC(=O)N3c3ccc(F)c(F)c3)nc3cc(-c4c(C)noc4C)ccc32)CC1 [INOBRODIB]", "Reading qualifier": "=", "Test value": 6.74}
